system tested: Protein translocase subunit SecA (Escherichia coli (strain K12))
measurement description: Assay to Identify E. coli SecA ATPase Inhibitors
Assay type: functional
Set-up: scale not given: direction of the effect not stated beside the values
stated conditions: 30 µM
Measured potencies and affinities stand elsewhere.
property label: Percent Effect (%)
Give bare numbers, in %.

Field: example entries. Status: answers known.
# molecule, units of measure, val
records = [
    ("O=C(COc1ccc(C(F)(F)F)cc1)NS(=O)(=O)c1cccnc1", "%", -0.269),
    ("CNC(=O)c1nc2c(s1)CCN(C(=O)c1cccnc1)CC2", "%", 2.24),
    ("CCN(CCC(F)(F)F)C(=O)Nc1cccc(N2CCOCC2)c1", "%", -2.27),
    ("Cc1nn(C)c2c(=O)n(CC(=O)Nc3cc(Cl)cc(Cl)c3)nnc12", "%", 0.37),
    ("COCCC1(CO)CCCN(Cc2ccc(F)c(C)c2)C1 (stereo not drawn)", "%", -3.62),
    ("CC(C)Nc1nc2c(cc1C(=O)N(C)C)CCNCC2", "%", -4.01),
    ("Cc1cc(CN2CCN(C(=O)Nc3cccnc3)CC2)on1", "%", -2.38),
    ("COCC1c2c(cnn2C)CCN1Cc1ccc(F)cc1 (stereo not drawn)", "%", -4.38),
]

Give measured Percent Effect for every item shown.
1. O=C(NCC(=O)N1CCCCC1)c1ccc(Cl)cc1I
2. CCCc1nc(N2Cc3cnn(Cc4ccc(F)cc4)c3C2)no1
3. CN(C)S(=O)(=O)N1CCC2(COCc3cnc(-c4ccccc4)nc32)C1 (stereo not drawn)
4. NC(=O)c1cc(C2CCCN(C(=O)CCc3ccsc3)C2)n[nH]1 (stereo not drawn)
5. Cn1ncc2c1CCCC2NCc1ccc(Cl)s1 (stereo not drawn)

Result:
1: -0.681; 2: -3.65; 3: -3.52; 4: -9.05; 5: -4.36

Give measured Percent Effect for every item shown.
1. CCCSCC(=O)Nc1ncn(CC(=O)NCc2ccccc2)n1
2. CCNc1cc2c(nn1)CCN(C(=O)CC1CCCCC1)C2
3. CC(=O)N(Cc1noc(C)n1)C1CCN(Cc2ccncc2Cl)C1 (stereo not drawn)
4. Cc1cccc(-n2cc(C(=O)N3CCn4c(C)nnc4C3)nn2)c1

Result:
-2.05
-8.49
-3.16
-9.19

Give measured Percent Effect for every item shown.
1. COc1cc(C)c(CN2CCC3(CC2)C(C(=O)O)CC(=O)N3C)cc1C (stereo not drawn)
2. CCn1c(C)nnc1CN(C)C1CCN(CCn2cccn2)C1 (stereo not drawn)
3. Cc1nn(C)c(N(C)C)c1CNCC(O)c1ccccc1 (stereo not drawn)
4. NC(=O)C1CCN(c2nc3nccc(-c4ccccc4)c3c(=O)[nH]2)CC1
5. COc1c(CNCc2cccc(Cn3ccnc3)c2)c(C)nn1C
6. O=C(O)c1cc2c(nc1O)CC(c1cccs1)CC2=O (stereo not drawn)
7. NC(=O)c1ccc(CN2CCCC(O)C2)cc1 (stereo not drawn)
8. Nc1nccc(N2CCCC(CO)(CCOc3ccccc3)C2)n1 (stereo not drawn)

Result:
-0.465
-1.14
-0.702
-4.01
-5.63
-5.09
-2.93
-4.62

Give measured Percent Effect for every item shown.
1. CN1CC(=O)N(c2cnn(C)c2)CC12CCN(Cc1nccn1C)C2 (stereo not drawn)
2. COCC1c2c(cnn2C)CCN1Cc1ccoc1 (stereo not drawn)

Result:
-0.706
-4.26

Give measured Percent Effect for every item shown.
1. O=C(CSc1ccncc1)N1C[C@H]2CC[C@@H]1CN(Cc1cccnc1)C2
2. N#Cc1cccnc1NCCNC(=O)N1CCCSCC1
3. CC(C)CC(=O)N1CCc2nc(N3CCOCC3)nc(NC(C)C)c2C1
4. COc1ccc2c(c1)CN(Cc1nc3c(cnn3C)c(=O)[nH]1)CC2
5. CC(C)c1nccn1CCCNC(=O)c1ccc(N(C)C)nc1

Result:
-4.31
-3.35
-4.18
-1.51
-2.99

Give measured Percent Effect for every item shown.
1. CCCc1n[nH]c(C2CN(CCNS(=O)(=O)CC)CCO2)n1 (stereo not drawn)
2. CNc1cc(CNC(=O)c2ccccn2)nc(-c2ccncc2)n1
3. NC(=O)COc1ccc(CNCc2ccc(F)c(F)c2)cc1
4. CN(C)C(=O)NCc1cc2n(n1)CCN(C[C@H]1[C@@H]3CNC[C@@H]31)C2
5. CC(=O)N1CC(Cc2nccc3ccn(C)c23)C1
6. O=C(Cn1cccnc1=O)NC(Cc1ccsc1)c1ccccn1 (stereo not drawn)
7. CCc1noc(C(C)N2CCN(Cc3noc(C)n3)CC2)n1 (stereo not drawn)

Result:
1. -1.25
2. -1.08
3. -4.2
4. -4.24
5. -2.79
6. -10
7. 1.26

Give measured Percent Effect for every item shown.
1. Cc1cc(C(=O)NCc2ccnc(N(C)C)c2)c(C)o1
2. Cc1nc(C)n(CC2CN(c3ccc(C#N)cn3)CCO2)n1 (stereo not drawn)
3. Cc1ccccc1-c1cc(C(=O)N2CCn3c(C)nnc3C2)[nH]n1
4. Cc1cc(CN2CCN(C(C)c3nc(C4CC4)no3)CC2)no1 (stereo not drawn)
5. CN(Cc1nnc(C2CC2)n1C)C1CCN(Cc2ccon2)C1 (stereo not drawn)

Result:
[-4.79, -4.11, -5.53, 1.42, -1.9]

Give measured Percent Effect for every item shown.
1. Cc1nc(C2CCCN(C(=O)c3cc(Cl)c[nH]3)C2)no1 (stereo not drawn)
2. CN(C)C(=O)CN1CCCCC1c1nc(N)ncc1-c1ccccc1 (stereo not drawn)
3. Cc1cc(N(C)C)nc(C2(C)CCCN2C(=O)c2cnccn2)n1 (stereo not drawn)

Result:
1: -5.67; 2: -1.46; 3: -2.86

Query: Which Percent Effect is reported for this molecule? Cn1cnc2c1C(COCC1CCOCC1)CN(C1CCOCC1)C2 (stereo not drawn)
Result: -3.42

src = ChEMBL document CHEMBL3988442
